Measured IC50 accompanies every entry in the list below.
# Test system: Human IL2 promoter
# testDescription: Human IL2 promoter reporter gene assay (RGA) in Jurkat cells
# Format: cell-based
# measurementContext: Jurkat clone K22 290_H23, anti-CD28 mAb + PMA stimulation 5.5 h
Write it as a number; the unit nM goes unstated.

[[record]]
molecule = "COCC(OC)c1c(NC(=O)Nc2ccnc(C(F)(F)F)c2)cnc2cc(Cl)nn12 (stereo not shown)"
targetorsystem = "Human IL2 promoter"
datavalue = 218

[[record]]
molecule = "C[C@H](O[C@H]1CCOC1)c1c(NC(=O)Nc2cnc(-n3nccn3)c(Cl)c2)cnc2cc(Cl)nn12"
targetorsystem = "Human IL2 promoter"
datavalue = 25

[[record]]
molecule = "CO[C@H](c1c(NC(=O)Nc2ccnc(C(F)(F)F)c2)cnc2cc(Cl)nn12)C(C)C"
targetorsystem = "Human IL2 promoter"
datavalue = 72


// next entry
Query block: // IC50 lookup, key: COCC1(c2c(NC(=O)Nc3cnc(-n4nccn4)c(Cl)c3)cnc3cc(Cl)nn23)CC1
Result block: 28

###

# targetOrSystem: cIAP2-MALT1 fusion protein (Homo sapiens)
# testDescription: cell-based
measuredAttribute: IC50 (nM)
Write it as a number; the unit nM goes unstated.

[[record]]
compoundstring = "COc1ccccc1-c1c(NC(=O)Nc2cnc(-n3nccn3)c(Cl)c2)cnc2cc(Cl)nn12"
readoutunits = "nM"
datavalue = 171


Query block: // IC50 lookup, key: CC(C)c1c(NC(=O)Nc2ccc(-n3nccn3)c(Cl)c2)cnc2cc(Cl)nn12
Result block: 99

Query block: // IC50 lookup, key: CN[C@@H](C)c1c(NC(=O)Nc2cnc(-n3nccn3)c(Cl)c2)cnc2cc(Cl)nn12
Result block: 157

###

# targetOrSystem: cIAP2-MALT1 fusion protein (Homo sapiens, UniProt Q9UDY8)
# Sequence (Q9UDY8 2-824 limits assumed): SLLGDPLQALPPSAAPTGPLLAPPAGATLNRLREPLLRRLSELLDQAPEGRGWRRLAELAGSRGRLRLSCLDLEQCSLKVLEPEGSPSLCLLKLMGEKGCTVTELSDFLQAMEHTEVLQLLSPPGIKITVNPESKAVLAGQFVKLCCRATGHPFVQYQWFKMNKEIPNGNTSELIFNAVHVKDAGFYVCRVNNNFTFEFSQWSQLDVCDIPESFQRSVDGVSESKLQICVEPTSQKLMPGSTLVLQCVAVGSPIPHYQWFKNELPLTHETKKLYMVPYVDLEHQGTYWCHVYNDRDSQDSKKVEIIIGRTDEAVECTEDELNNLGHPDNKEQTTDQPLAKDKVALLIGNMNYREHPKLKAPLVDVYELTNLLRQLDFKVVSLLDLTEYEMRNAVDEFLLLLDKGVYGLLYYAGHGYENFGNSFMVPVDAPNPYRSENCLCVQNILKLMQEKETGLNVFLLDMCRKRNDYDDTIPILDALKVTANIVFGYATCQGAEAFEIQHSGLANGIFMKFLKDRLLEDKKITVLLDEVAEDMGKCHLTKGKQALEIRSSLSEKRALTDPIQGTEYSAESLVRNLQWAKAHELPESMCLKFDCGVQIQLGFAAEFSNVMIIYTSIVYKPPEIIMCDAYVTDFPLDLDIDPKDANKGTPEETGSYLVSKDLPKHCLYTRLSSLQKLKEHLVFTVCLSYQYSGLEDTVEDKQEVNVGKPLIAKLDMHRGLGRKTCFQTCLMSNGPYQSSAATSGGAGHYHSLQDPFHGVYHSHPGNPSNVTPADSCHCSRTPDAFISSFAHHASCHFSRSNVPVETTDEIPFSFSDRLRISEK
# testDescription: cell-based
Measured IC50 accompanies every entry in the list below.
Write it as a number; the unit nM goes unstated.

// below: answered compounds
[[record]]
compoundstring = "CC(C)c1c(NC(=O)Nc2cc(Cl)c(=O)n(C)c2-n2cccn2)cnc2cc(Cl)nn12"
targetorsystem = "cIAP2-MALT1 fusion protein (Homo sapiens, UniProt Q9UDY8)"
readoutunits = "nM"
datavalue = 131

[[record]]
compoundstring = "CO[C@H](c1c(NC(=O)Nc2ccnc(C(F)(F)F)c2)cnc2cc(Cl)nn12)C(C)C"
targetorsystem = "cIAP2-MALT1 fusion protein (Homo sapiens, UniProt Q9UDY8)"
readoutunits = "nM"
datavalue = 100

[[record]]
compoundstring = "COC(C)(C)c1c(NC(=O)Nc2cnc(-n3nccn3)c(Cl)c2)cnc2cc(Cl)nn12"
targetorsystem = "cIAP2-MALT1 fusion protein (Homo sapiens, UniProt Q9UDY8)"
readoutunits = "nM"
datavalue = 49

[[record]]
compoundstring = "COc1cc(NC(=O)Nc2cnc3cc(Cl)nn3c2[C@H](C)OC)cnc1-n1nccn1"
targetorsystem = "cIAP2-MALT1 fusion protein (Homo sapiens, UniProt Q9UDY8)"
readoutunits = "nM"
datavalue = 164

[[record]]
compoundstring = "CC(C)c1c(NC(=O)Nc2cc(Cl)c(-n3nccn3)c(Cl)c2)cnc2cc(Cl)nn12"
targetorsystem = "cIAP2-MALT1 fusion protein (Homo sapiens, UniProt Q9UDY8)"
readoutunits = "nM"
datavalue = 382

[[record]]
compoundstring = "C[C@@H](OCc1ccccc1)c1c(NC(=O)Nc2cnc(-n3nccn3)c(C(F)(F)F)c2)cnc2cc(Cl)nn12"
targetorsystem = "cIAP2-MALT1 fusion protein (Homo sapiens, UniProt Q9UDY8)"
readoutunits = "nM"
datavalue = 405

[[record]]
compoundstring = "CC1(c2c(NC(=O)Nc3ccnc(C(F)(F)F)c3)cnc3cc(Cl)nn23)CC1"
targetorsystem = "cIAP2-MALT1 fusion protein (Homo sapiens, UniProt Q9UDY8)"
readoutunits = "nM"
datavalue = 117


Query block: Recorded IC50 for CN1CCCC[C@H]1c1c(NC(=O)Nc2cnc(-n3nccn3)c(Cl)c2)cnc2cc(Cl)nn12 with cIAP2-MALT1 fusion protein (Homo sapiens, UniProt Q9UDY8), please?
Result block: 89
